Target: T1, huNotch2-EGF6-10 (human, UniProt Q04721 219-418)
T1 construct: also called human Notch2 EGF6-10
T1 sequence: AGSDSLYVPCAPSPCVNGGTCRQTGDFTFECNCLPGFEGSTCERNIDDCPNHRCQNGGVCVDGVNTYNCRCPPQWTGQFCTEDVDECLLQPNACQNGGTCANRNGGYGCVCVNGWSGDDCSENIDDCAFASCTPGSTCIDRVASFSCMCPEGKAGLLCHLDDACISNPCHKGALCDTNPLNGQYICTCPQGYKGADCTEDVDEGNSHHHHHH
Test: SPR BIAcore T200, antibody captured on protein A, 37 C
endpoint_name: Kd (nM)
State the answer as a number, implicitly in nM.

binder	endpoint_unit	numeric_result
hu1B2.v101 (antibody, V domains shown, Human IgG1 backbone) VH: EVQLVESGGGLVQPGGSLKLSCAVSGFTFSDFYMEWVRQASGKGLEWVAAQRNKANDFSIVYSASVKDRFTISRDDSKSTLYLQMNSLKTEDTAVYYCSRDGGRWGLDAWGQGTLVTVSS VL: DIQMTQSPSSVSASVGDRVTITCQTSEDIYSGLAWYQQKPGKSPKLLIYGASRLQDGVPSRFSGSGSGTDYTLTISSLQPEDFATYYCQQGFKYPLTFGGGTKVEIK	nM	2.84
hu1B2.v102 (antibody, V domains shown, Human IgG1 backbone) VH: EVQLVESGGGLVQPGGSLKLSCAVSGFTFSDFYMEWVRQASGKGLEWVAAQRNKANDFSIVYSASVKDRFTISRDDSKSTLYLQMNSLKTEDTAVYYCSRDGGRLALDAWGQGTLVTVSS VL: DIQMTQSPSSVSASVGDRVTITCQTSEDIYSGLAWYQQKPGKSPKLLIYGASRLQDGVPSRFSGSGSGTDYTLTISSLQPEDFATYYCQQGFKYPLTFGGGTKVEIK	nM	3.37
rat.3107 (rat/human chimeric anti-Notch2 antibody 3107) (antibody, V domains shown) VH: QVQLQQSGAELAKSGSSVKISCKASGYTFSNYVIHWIKQTTGQAPEWTGYIIPGSGGTKFNEKFKGKATLTVDKSSTTAYMQLSSLTPVDTAVYYCARDGAGSFTYWGQGTLVTVSS VL: DVLMTQTPVSLPVSLGGQVSISCRSSQSLVHSDGNTYLHWFLQKPGQSPQLLIYRISNRFSGVPDRFSGSGSGTDFTLKISRVEPEDLGVYYCLQSTHFPDTFGGGTKVEIK	nM	5

Let's switch to this binder now.
Q) # get_value(readout='Kd', item= hu1B2.L7H14 (antibody, V domains shown, Human IgG1 backbone; also called hu.1B2.DFS.H14L7) VH: EVQLVESGGGLVQPGGSLKLSCAVSGFTFSDFYMEWVRQASGKGLEWVAASRNKANDFSIVYSASVKDRFTISRDDSKSTLYLQMNSLKTEDTAVYYCSRDSGRWGLDAWGQGTLVTVSS VL: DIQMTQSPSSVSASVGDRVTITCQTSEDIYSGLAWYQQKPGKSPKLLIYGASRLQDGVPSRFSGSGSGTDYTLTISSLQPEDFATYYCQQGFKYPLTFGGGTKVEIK )
A) 6.13
